tested on: biotinyl-Met-oxazolone; experiment: self-aminoacylation, catalytic enhancement (BMO) (fold over background); higher = more active; k-Seq, kA / k0A0; sequences stand for … in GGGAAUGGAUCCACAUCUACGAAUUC…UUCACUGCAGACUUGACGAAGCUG
Variants at the floor of the assay were thinned out.
measurement kind: self-aminoacylation
// return just the number, without any unit appended

[
  {
    "sequence record": "UUUACCCUGGUCACCGAGUGA [Fam2.1 aminoacylation ribozyme variant]",
    "quantitative result": 7.62
  }
]

The value of self-aminoacylation measured for the sequence CGACACUUCAAGCAAUCUGUC [Fam1B.1 aminoacylation ribozyme variant] turned out to be 0.52

# self-aminoacylation of CCACACUUCGAGCAAUCGGUG [Fam1B.1 aminoacylation ribozyme variant] = 2.48

Memo: AAGGUUGCUAAUAAUCGCAAG [Fam3.1 aminoacylation ribozyme variant] , reported self-aminoacylation: 1.11

// recorded self-aminoacylation for AAGUUUGCUAAUCGUGGCAAG [Fam3.1 aminoacylation ribozyme variant] : 0.604

The reported value for CCACCCUUCGAGCAAUCGGUC [Fam1B.1 aminoacylation ribozyme variant] in terms of self-aminoacylation is 1.94

Documented self-aminoacylation of CCACACUUCAAGCGAUCGGGC [Fam1B.1 aminoacylation ribozyme variant] : 2.65

self-aminoacylation reported for this sequence UUUACUCUGGUCAUCGAGUGA [Fam2.1 aminoacylation ribozyme variant] : 5.53

self-aminoacylation reading for AUAACCCUGGUCAUCGAGCGA [Fam2.1 aminoacylation ribozyme variant] : 1.58

For record UUUCACCUAGGUUAUCGGGUG [Fam2.2 aminoacylation ribozyme variant] the listed self-aminoacylation is 3.71

Sure, the documented self-aminoacylation for AGUCACCUAGGUCAUCCGGUG [Fam2.2 aminoacylation ribozyme variant] is 6.2

* * *

test system: biotinyl-Ile-oxazolone; test: self-aminoacylation, catalytic enhancement (BIO) (fold over background); higher = more active; k-Seq, kA / k0A0; sequences stand for … in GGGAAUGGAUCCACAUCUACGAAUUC…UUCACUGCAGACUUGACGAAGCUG
Variants at the floor of the assay were thinned out.
Measured self-aminoacylation accompanies every entry in the list below.
Enter the number alone.

# annotated cases, reported self-aminoacylation shown
[
  {
    "sequence record": "CCACACUUCAAGUAAUCGGUG [Fam1B.1 aminoacylation ribozyme variant]",
    "self-aminoacylation": 3.28
  },
  {
    "sequence record": "CUACUUCAAACAAUCUGUUUG [Fam1A.1 aminoacylation ribozyme variant]",
    "self-aminoacylation": 0.788
  },
  {
    "sequence record": "UUUCACCUAGGUCAUCGGGUA [Fam2.2 aminoacylation ribozyme variant]",
    "self-aminoacylation": 14.7
  },
  {
    "sequence record": "UUACACUUCAAGCAAUCGGUC [Fam1B.1 aminoacylation ribozyme variant]",
    "self-aminoacylation": 1.25
  },
  {
    "sequence record": "AUUCACAUAUGUCAUCGGGUG [Fam2.2 aminoacylation ribozyme variant]",
    "self-aminoacylation": 4.44
  },
  {
    "sequence record": "AUUAACCUAGGUCAACGGGUG [Fam2.2 aminoacylation ribozyme variant]",
    "self-aminoacylation": 2.13
  },
  {
    "sequence record": "CUGACCCUGGUCAUCGAGUGA [Fam2.1 aminoacylation ribozyme variant]",
    "self-aminoacylation": 3.64
  }
]

# context switch: different sequence, same self-aminoacylation
Value of self-aminoacylation reported for the sequence GCACACUUCAAGCAGUCGGUC [Fam1B.1 aminoacylation ribozyme variant] is 1.56
